# measured_target: 5-hydroxytryptamine receptor 6 (Homo sapiens, UniProt P50406)
# Sequence (P50406 whole entry): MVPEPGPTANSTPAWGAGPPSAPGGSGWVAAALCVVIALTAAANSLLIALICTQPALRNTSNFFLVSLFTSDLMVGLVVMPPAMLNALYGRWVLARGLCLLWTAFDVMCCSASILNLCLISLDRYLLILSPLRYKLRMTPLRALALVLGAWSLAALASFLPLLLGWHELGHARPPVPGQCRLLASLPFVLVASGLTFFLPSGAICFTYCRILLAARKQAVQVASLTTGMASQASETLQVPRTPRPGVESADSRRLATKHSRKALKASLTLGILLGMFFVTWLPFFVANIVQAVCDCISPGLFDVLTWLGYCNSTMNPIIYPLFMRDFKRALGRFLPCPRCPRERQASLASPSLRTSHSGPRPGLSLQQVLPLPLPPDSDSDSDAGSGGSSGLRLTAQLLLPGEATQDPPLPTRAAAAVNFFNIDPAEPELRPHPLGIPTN
# test_method_notes: Antagonist activity at human 5HT6 receptor expressed in HeLa cells assessed as inhibition of 5-HT-induced cAMP accumulation
# Type: functional, cell-based
observed_property: Imax (%)

cpd_smiles=CN1CCC(c2n[nH]c3ccc(S(=O)(=O)c4cccc5ccccc45)cc23)CC1 observed_property=Imax recorded_value=100
cpd_smiles=CC(C)c1ccc(S(=O)(=O)c2ccc3[nH]nc(C4CCN(C)CC4)c3c2)cc1 observed_property=Imax recorded_value=100
cpd_smiles=CN1CCC(c2n[nH]c3ccc(S(=O)(=O)c4cccc(Cl)c4)cc23)CC1 observed_property=Imax recorded_value=95
cpd_smiles=CN1CCC(c2n[nH]c3ccc(S(=O)(=O)c4ccc5ccccc5c4)cc23)CC1 observed_property=Imax recorded_value=100

###

# measured_target: 5-hydroxytryptamine receptor 6 (Homo sapiens)
# test_method_notes: Antagonist activity at human 5HT6 receptor expressed in HeLa cells assessed as inhibition of 5-HT-induced cAMP accumulation
pIC50: −log10 of the molar value.
observed_property: pIC50

cpd_smiles=CC(C)c1ccc(S(=O)(=O)c2ccc3[nH]nc(C4CCN(C)CC4)c3c2)cc1 recorded_value=6.97

[I] CN1CCC(c2n[nH]c3ccc(S(=O)(=O)c4cccc5ccccc45)cc23)CC1
[II] CN1CCC(c2n[nH]c3ccc(S(=O)(=O)c4cccc(Cl)c4)cc23)CC1
[III] CN1CCC(c2n[nH]c3ccc(S(=O)(=O)c4ccc5ccccc5c4)cc23)CC1
Please rank these molecules by pIC50 in descending order. List each label, following the requested order.
III, I, II

Cited source for all entries: ChEMBL document CHEMBL1781981
